Kindly state IC50 for each of the entries shown.
# Test system: HEK293 cells
# test_details: Glutamine uptake inhibition assay (3H-labeled glutamine accumulation in live cells)
# Assay type: cell-based
# measurement_parameters: Homo sapiens, 15 minutes incubation with 3H-GLN (500 nM), assay buffer pH 6, triplicate, read-out: ^3H Glut IC50
Report only the number, with the unit µM understood.

Looking up N[C@@H](CCN(Cc1ccccc1OCc1ccc(F)cc1)Cc1ccccc1Oc1ccccc1F)C(=O)O [compound 8] , I see its IC50 listed as 117

The reported IC50 of the molecule COc1cccc(COc2ccccc2CN(CC[C@H](N)C(=O)O)Cc2ccccc2Oc2ccc(Cl)cc2)c1 [Cpd. No. 20] was 3.19

For record N[C@@H](CCN(Cc1ccccc1OCc1ccccc1F)Cc1ccccc1Oc1ccccc1F)C(=O)O [compound 7] the listed IC50 is 94.2

The measurements presented in this section are drawn from patent US20220265590A1.
